target: T1, EsCas13d, nuclease-dead (Eubacterium siraeum, UniProt B0MS50, R295A;H300A;R849A;H854A)
T1 sequence: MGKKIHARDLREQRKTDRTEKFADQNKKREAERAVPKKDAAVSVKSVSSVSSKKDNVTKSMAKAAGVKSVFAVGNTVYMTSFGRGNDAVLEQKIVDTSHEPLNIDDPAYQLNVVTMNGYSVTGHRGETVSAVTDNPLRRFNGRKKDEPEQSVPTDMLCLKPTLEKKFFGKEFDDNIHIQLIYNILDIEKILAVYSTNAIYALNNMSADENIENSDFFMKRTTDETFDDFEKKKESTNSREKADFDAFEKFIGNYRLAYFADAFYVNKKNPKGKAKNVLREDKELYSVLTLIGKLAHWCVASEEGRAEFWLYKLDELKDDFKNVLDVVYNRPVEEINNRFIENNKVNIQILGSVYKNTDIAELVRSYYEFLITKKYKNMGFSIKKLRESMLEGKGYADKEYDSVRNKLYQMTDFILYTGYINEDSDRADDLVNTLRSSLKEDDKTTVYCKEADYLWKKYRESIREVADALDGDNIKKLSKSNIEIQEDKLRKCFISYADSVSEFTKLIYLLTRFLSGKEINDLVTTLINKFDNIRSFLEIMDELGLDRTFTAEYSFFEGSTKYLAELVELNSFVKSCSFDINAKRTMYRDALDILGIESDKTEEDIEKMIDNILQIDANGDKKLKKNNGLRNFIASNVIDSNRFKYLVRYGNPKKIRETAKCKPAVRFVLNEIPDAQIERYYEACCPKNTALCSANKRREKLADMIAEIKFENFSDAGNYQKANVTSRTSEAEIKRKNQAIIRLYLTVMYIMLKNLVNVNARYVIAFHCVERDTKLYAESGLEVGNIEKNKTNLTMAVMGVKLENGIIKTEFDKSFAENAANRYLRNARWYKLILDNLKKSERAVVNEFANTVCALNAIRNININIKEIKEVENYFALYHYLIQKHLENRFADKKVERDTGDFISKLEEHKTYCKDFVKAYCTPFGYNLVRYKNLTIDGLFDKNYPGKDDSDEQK
assay_summary: crRNA (strand 1, pre-loaded); Mg2+; 40 mM Tris-HCl pH 7.5, 150 mM NaCl, 6 mM MgCl2, 1 mM DTT, 0.1% Tween-20, 0.2 mg/ml BSA; 25 C; 10 min per concentration, then washed
assay_setup: tags: His6-TwinStrep-SUMO cleaved; N-terminal SNAP kept (SNAP-Surface 488); label: 3' end held by stalled T7 RNA polymerase
measure_name: Kd (nM)

# binder, meas_value
records = [
    ("target 1 MT 5'PFS UGU 3'PFS UCU (mixed) RNA 1: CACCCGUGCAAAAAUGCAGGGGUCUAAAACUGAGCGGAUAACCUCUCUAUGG RNA 2: GGGAAUGGAUCCACAUCUACGAAUUCUGUCCAUAGAGAGGUUAUCCGCUCAUCUAGAUCGGAAGAGCACACGU", 28.5),
    ("target 1 insU 3' of 20 (mixed) RNA 1: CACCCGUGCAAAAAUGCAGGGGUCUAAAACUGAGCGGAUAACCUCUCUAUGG RNA 2: GGGAAUGGAUCCACAUCUACGAAUUCGUACCAUUAGAGAGGUUAUCCGCUCACCGAGAUCGGAAGAGCACACGU", 10.6),
    ("target 2 MT 5'PFS CUC 3'PFS CGC (mixed) RNA 1: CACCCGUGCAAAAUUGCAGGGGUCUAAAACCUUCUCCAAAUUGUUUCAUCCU RNA 2: GGGAAUGGAUCCACAUCUACGAAUUCCUCAGGAUGAAACAAUUUGGAGAAGCGCAGAUCGGAAGAGCACACGU", 2.25),
    ("target 1 del3,del14 (mixed) RNA 1: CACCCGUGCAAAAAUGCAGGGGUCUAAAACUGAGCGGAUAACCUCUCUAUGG RNA 2: GGGAAUGGAUCCACAUCUACGAAUUCGUACCAUAGAGGGUUAUCCGCCACCGAGAUCGGAAGAGCACACGU", 44),
]
